pIC50: −log10 of the molar value.
Assay read-out pIC50; system under study: human JAK1 (a.a. 837-1142) (Homo sapiens).

Report pIC50 for N#CCC1(n2cc(-c3c(F)cnc4[nH]ccc34)cn2)CN(C2CCN(C(=O)Nc3ccc(F)cc3C(F)(F)F)CC2)C1 [Example 328] tested on human JAK1 (a.a. 837-1142) (Homo sapiens).
≥ 8.30

Report pIC50 for CC1CC(N2CC(CC#N)(n3cc(-c4ncnc5[nH]ccc45)cn3)C2)CCN1Cc1c(F)cccc1Cl (single isomer, unassigned) [Example 244] tested on human JAK1 (a.a. 837-1142) (Homo sapiens).
7.70 to 8.30

Report pIC50 for N#CCC1(n2cc(-c3ccnc4[nH]ccc34)cn2)CN(C2CCN(C(=O)Nc3ccc(F)cc3F)CC2)C1 [Example 304] tested on human JAK1 (a.a. 837-1142) (Homo sapiens).
≥ 8.30

Report pIC50 for N#CCC1(n2cc(-c3ncnc4[nH]ccc34)cn2)CN(C2CCN(C(=O)c3ccc(-c4cccc5ncccc45)c(F)c3)CC2)C1 [Example 129] tested on human JAK1 (a.a. 837-1142) (Homo sapiens).
≥ 8.30

Report pIC50 for N#CCC1(n2cc(-c3ncnc4[nH]ccc34)cn2)CN(C2CCN(C(=O)c3ccc(-c4cccc(C#N)c4)c(F)c3)CC2)C1 [Example 125] tested on human JAK1 (a.a. 837-1142) (Homo sapiens).
≥ 8.30

Report pIC50 for COc1ccc(C(=O)N2CCC(N3CC(CC#N)(n4cc(-c5ncnc6[nH]ccc56)cn4)C3)CC2)cc1C#N [Example 55] tested on human JAK1 (a.a. 837-1142) (Homo sapiens).
≥ 8.30

====

target: human JAK1 (a.a. 837-1142); experiment: In vitro JAK kinase assay (HTRF, phosphorylation of a biotinylated peptide), JAK1; assay type: biochemical; conditions: ratio of JAK2 IC50 to JAK1 IC50, measured at 1 mM ATP
value.kind: IC50 Ratio JAK2/JAK1

[[record]]
input_smiles = "N#CCC1(n2cc(-c3ccnc4[nH]ccc34)cn2)CN(C2CCN(C(=O)Nc3ccccc3F)CC2)C1"
endpoint_result = 5.3

[[record]]
input_smiles = "CN(C)Cc1cc(C(=O)N2CCC(N3CC(CC#N)(n4cc(-c5ncnc6[nH]ccc56)cn4)C3)CC2)cc(C(F)F)c1"
endpoint_result = 12.7

[[record]]
input_smiles = "N#CCC1(n2ccc(-c3ncnc4[nH]ccc34)c2)CN(C2CCN(C(=O)c3cccc(F)c3F)CC2)C1"
endpoint_result = 4.0

[[record]]
input_smiles = "N#CCC1(n2cc(-c3c(C#N)cnc4[nH]ccc34)cn2)CN(C2CCN(C(=O)c3cc(Br)cc(Br)c3)CC2)C1"
endpoint_result = 2.9

[[record]]
input_smiles = "N#CCC1(n2cc(-c3c(F)cnc4[nH]ccc34)cn2)CN(C2CCN(C(=O)c3cc(C(F)(F)F)ncc3Cl)CC2)C1"
endpoint_result = 1.7


P: CN(C)c1ccc(S(=O)(=O)N2CCC(N3CC(CC#N)(n4cc(-c5ncnc6[nH]ccc56)cn4)C3)CC2)cc1C#N
Q: N#CCC1(n2cc(-c3ncnc4[nH]ccc34)cn2)CN(C2CCN(C(=O)c3cnccn3)CC2)C1
Pick one, P or Q : lowest reported IC50 Ratio JAK2/JAK1. Record your answer as the label of the chosen record.
Q

====

Assay read-out IC50; system under study: human JAK1 (a.a. 837-1142) (Homo sapiens, UniProt P23458).

Recorded IC50, per entry:
[[record]]
molecule = "CC1CC(N2CC(CC#N)(n3cc(-c4ncnc5[nH]ccc45)cn3)C2)CCN1C(=O)C1CCC(F)(F)CC1 (stereo not shown)"
endpoint_result = "5 to 20 nM"

[[record]]
molecule = "N#CCC1(n2cc(-c3ncnc4[nH]ccc34)cn2)CN(C2CCN(C(=O)Nc3cccc(C(F)(F)F)c3F)CC2)C1"
endpoint_result = "≤ 5 nM"

[[record]]
molecule = "Cc1cc(C)c(CC(=O)N2CCC(N3CC(CC#N)(n4cc(-c5ncnc6[nH]ccc56)cn4)C3)CC2)c(C)c1"
endpoint_result = "20 to 30 nM"

[[record]]
molecule = "Cc1nc(C(F)(F)F)ccc1NC(=O)N1CCC(N2CC(CC#N)(n3ccc(-c4ncnc5[nH]ccc45)c3)C2)CC1"
endpoint_result = "5 to 20 nM"

[[record]]
molecule = "N#CCC1(n2cc(-c3ncnc4[nH]ccc34)cn2)CN(C2CCN(C(=O)C3(c4ccc(Cl)cc4)CC3)CC2)C1"
endpoint_result = "5 to 20 nM"

[[record]]
molecule = "N#CCC1(n2ccc(-c3ncnc4[nH]ccc34)c2)CN(C2CCN(C(=O)c3cc(F)cc(C(F)(F)F)c3)CC2)C1"
endpoint_result = "≤ 5 nM"


# input for lookup
Report IC50 for N#CCC1(n2cc(-c3ncnc4[nH]ccc34)cn2)CN(C2CCN(C(=O)c3cccc(OC(F)(F)F)c3)CC2)C1 tested on human JAK1 (a.a. 837-1142) (Homo sapiens, UniProt P23458).
5 to 20 nM

====

Assay read-out IC50; system under study: Jak2 (a.a. 828-1132) (Homo sapiens (Human)).
Sequence (O60674 828-1132): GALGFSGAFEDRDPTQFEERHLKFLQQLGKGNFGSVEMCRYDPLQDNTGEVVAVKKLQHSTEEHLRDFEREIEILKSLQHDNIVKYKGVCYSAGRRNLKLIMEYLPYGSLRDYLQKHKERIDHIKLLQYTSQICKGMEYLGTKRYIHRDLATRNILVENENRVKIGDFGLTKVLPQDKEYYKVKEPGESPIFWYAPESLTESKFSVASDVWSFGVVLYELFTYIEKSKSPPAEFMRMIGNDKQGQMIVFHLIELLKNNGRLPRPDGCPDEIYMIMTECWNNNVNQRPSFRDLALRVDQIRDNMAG

Recorded IC50, per entry:
[[record]]
input_smiles = "CC(C)(C)C(=O)Nc1ncccc1CN1CCC(N2CC(CC#N)(n3cc(-c4ncnc5[nH]ccc45)cn3)C2)CC1"
endpoint_result = "10 to 50 nM"

[[record]]
input_smiles = "N#CCC1(n2cc(-c3ncnc4[nH]ccc34)cn2)CN(C2CCN(Cc3cc(C(F)(F)F)ccc3Cl)CC2)C1"
endpoint_result = "10 to 50 nM"


Report IC50 for N#CCC1(n2cc(-c3ncnc4[nH]ccc34)cn2)CN(C2CCN(C(=O)c3ccc(-c4ccc(C#N)c(F)c4)c(F)c3)CC2)C1 tested on Jak2 (a.a. 828-1132) (Homo sapiens (Human)).
10 to 50 nM

Report IC50 for N#CCC1(n2cc(-c3ncnc4[nH]ccc34)cn2)CN(C2CCN(C(=O)c3cccc(C(F)(F)F)c3)CC2)C1 tested on Jak2 (a.a. 828-1132) (Homo sapiens (Human)).
10 to 50 nM

====

# reported IC50; entries follow
target: Jak2 (a.a. 828-1132) (Homo sapiens (Human))

Recorded IC50, per entry:
[[record]]
compound = "N#CCC1(n2cc(-c3ncnc4[nH]ccc34)cn2)CN(C2CCN(C(=O)c3ccc(-c4cccc5cccnc45)c(F)c3)CC2)C1 [Example 132]"
system_tested = "Jak2 (a.a. 828-1132) (Homo sapiens (Human))"
value_kind = "IC50"
endpoint_result = "≤ 10 nM"

[[record]]
compound = "N#CCC1(n2cc(-c3ncnc4[nH]ccc34)cn2)CN(C2CCN(Cc3ccc(F)c(C#N)c3)CC2)C1 [Example 220]"
system_tested = "Jak2 (a.a. 828-1132) (Homo sapiens (Human))"
value_kind = "IC50"
endpoint_result = "50 to 100 nM"

[[record]]
compound = "N#CCC1(n2cc(-c3ncnc4[nH]ccc34)cn2)CN(C2CCN(C(=O)c3c(F)cc(-c4cccnc4)cc3F)CC2)C1 [Example 116]"
system_tested = "Jak2 (a.a. 828-1132) (Homo sapiens (Human))"
value_kind = "IC50"
endpoint_result = "10 to 50 nM"

[[record]]
compound = "N#CCC1(n2cc(-c3ncnc4[nH]ccc34)cn2)CN(C2CC3CCC(C2)N3Cc2c(F)ccc(F)c2Cl)C1 (centres unmarked) [Example 241]"
system_tested = "Jak2 (a.a. 828-1132) (Homo sapiens (Human))"
value_kind = "IC50"
endpoint_result = "≤ 10 nM"

[[record]]
compound = "N#CCC1(n2ccc(-c3ncnc4[nH]ccc34)c2)CN(C2CCN(C(=O)c3cccs3)CC2)C1 [Example 271]"
system_tested = "Jak2 (a.a. 828-1132) (Homo sapiens (Human))"
value_kind = "IC50"
endpoint_result = "10 to 50 nM"


Report IC50 for COc1c(Br)cc(C(=O)N2CCC(N3CC(CC#N)(n4cc(-c5ncnc6[nH]ccc56)cn4)C3)CC2)cc1Br [Example 50] tested on Jak2 (a.a. 828-1132) (Homo sapiens (Human)).
≤ 10 nM

Report IC50 for N#CCC1(n2cc(-c3ccnc4[nH]ccc34)cn2)CN(C2CCN(C(=O)c3ccc(C#N)cc3F)CC2)C1 [Example 295] tested on Jak2 (a.a. 828-1132) (Homo sapiens (Human)).
10 to 50 nM

Report IC50 for COc1cccc(C(=O)N2CCC(N3CC(CC#N)(n4cc(-c5ncnc6[nH]ccc56)cn4)C3)CC2)c1 [Example 31] tested on Jak2 (a.a. 828-1132) (Homo sapiens (Human)).
≤ 10 nM

Report IC50 for N#CCC1(n2cc(-c3ncnc4[nH]ccc34)cn2)CN(C2CC3CCC(C2)N3C(=O)c2ccc(F)c(F)c2)C1 (centres unmarked) [Example 139] tested on Jak2 (a.a. 828-1132) (Homo sapiens (Human)).
≤ 10 nM

Report IC50 for N#CCC1(n2cc(-c3c(C#N)cnc4[nH]ccc34)cn2)CN(C2CCN(C(=O)c3cc(C#N)cc(C#N)c3)CC2)C1 [Example 338] tested on Jak2 (a.a. 828-1132) (Homo sapiens (Human)).
50 to 100 nM

Report IC50 for N#CCC1(n2ccc(-c3ncnc4[nH]ccc34)c2)CN(C2CCN(C(=O)c3ccc(F)c(F)c3F)CC2)C1 [Example 280] tested on Jak2 (a.a. 828-1132) (Homo sapiens (Human)).
≤ 10 nM

Report IC50 for N#CCC1(n2cc(-c3ncnc4[nH]ccc34)cn2)CN(C2CCN(C(=O)Nc3cccc(C(F)(F)F)c3)CC2)C1 [Example 166] tested on Jak2 (a.a. 828-1132) (Homo sapiens (Human)).
≤ 10 nM

Report IC50 for N#CCC1(n2cc(-c3ncnc4[nH]ccc34)cn2)CN(C2CCN(C(=O)Nc3ccc(F)cc3F)CC2)C1 [Example 171] tested on Jak2 (a.a. 828-1132) (Homo sapiens (Human)).
10 to 50 nM

Report IC50 for Cc1ccsc1C(=O)N1CCC(N2CC(CC#N)(n3cc(-c4ncnc5[nH]ccc45)cn3)C2)CC1 [Example 78] tested on Jak2 (a.a. 828-1132) (Homo sapiens (Human)).
10 to 50 nM
